Test system: Mast/stem cell growth factor receptor Kit (Homo sapiens), P10721 [T670I]
Sequence (P10721 whole entry T670I): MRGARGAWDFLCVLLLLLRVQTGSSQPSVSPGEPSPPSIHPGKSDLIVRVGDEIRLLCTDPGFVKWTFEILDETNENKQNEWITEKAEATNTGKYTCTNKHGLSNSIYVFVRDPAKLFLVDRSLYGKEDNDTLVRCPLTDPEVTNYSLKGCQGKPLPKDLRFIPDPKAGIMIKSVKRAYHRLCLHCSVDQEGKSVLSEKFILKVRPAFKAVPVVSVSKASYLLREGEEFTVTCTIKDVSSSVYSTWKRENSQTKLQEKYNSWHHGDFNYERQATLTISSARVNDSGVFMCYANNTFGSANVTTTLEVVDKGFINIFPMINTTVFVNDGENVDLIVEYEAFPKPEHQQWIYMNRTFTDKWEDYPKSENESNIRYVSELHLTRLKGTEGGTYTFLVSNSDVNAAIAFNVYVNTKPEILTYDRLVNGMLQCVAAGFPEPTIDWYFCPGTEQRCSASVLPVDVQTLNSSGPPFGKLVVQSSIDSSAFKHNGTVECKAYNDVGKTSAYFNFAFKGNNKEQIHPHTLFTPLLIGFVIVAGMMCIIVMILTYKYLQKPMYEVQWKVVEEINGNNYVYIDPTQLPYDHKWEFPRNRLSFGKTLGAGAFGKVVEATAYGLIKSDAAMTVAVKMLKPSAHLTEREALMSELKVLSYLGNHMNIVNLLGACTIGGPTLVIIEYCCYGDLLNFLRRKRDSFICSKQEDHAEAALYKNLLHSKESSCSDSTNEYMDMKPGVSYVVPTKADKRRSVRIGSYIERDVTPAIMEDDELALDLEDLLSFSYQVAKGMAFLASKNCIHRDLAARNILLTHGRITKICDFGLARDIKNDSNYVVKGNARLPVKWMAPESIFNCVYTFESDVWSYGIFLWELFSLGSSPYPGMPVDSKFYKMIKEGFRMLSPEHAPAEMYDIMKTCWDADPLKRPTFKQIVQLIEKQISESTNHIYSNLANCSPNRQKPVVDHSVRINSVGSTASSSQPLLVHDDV
Details: at 0.1 µM
inhibition values, listed per item
Give just the numeric value; % need not be written.

- SMILES: "CCN1CCC(C(=O)Nc2n[nH]c3nnc(-c4cccc(F)c4F)cc23)CC1"
  TARGET OR TEST SYSTEM: "Mast/stem cell growth factor receptor Kit (Homo sapiens), P10721 [T670I]"
  READOUT UNIT: "%"
  inhibition: 3.1
- SMILES: "NS(=O)(=O)c1ccc(N/N=C2\\C(=O)Nc3ccc(C(=O)NCc4ccncc4)cc32)cc1"
  TARGET OR TEST SYSTEM: "Mast/stem cell growth factor receptor Kit (Homo sapiens), P10721 [T670I]"
  READOUT UNIT: "%"
  inhibition: 1.57
- SMILES: "N#Cc1ccc2c(-c3ccnc(NC4CC4)n3)c(-c3ccc(F)cc3)nn2c1"
  TARGET OR TEST SYSTEM: "Mast/stem cell growth factor receptor Kit (Homo sapiens), P10721 [T670I]"
  READOUT UNIT: "%"
  inhibition: 1.28
- SMILES: "O=C1Nc2ccccc2/C1=C1\\CCc2cc(O)ccc21"
  TARGET OR TEST SYSTEM: "Mast/stem cell growth factor receptor Kit (Homo sapiens), P10721 [T670I]"
  READOUT UNIT: "%"
  inhibition: 39.3
- SMILES: "CS(=O)(=O)CCNCc1ccc(-c2ccc3ncnc(Nc4ccc(OCc5ccccc5)cc4)c3c2)o1"
  TARGET OR TEST SYSTEM: "Mast/stem cell growth factor receptor Kit (Homo sapiens), P10721 [T670I]"
  READOUT UNIT: "%"
  inhibition: 3.32

Field inhibition (entry O=C(O[C@H]1CN[C@H](C#Cc2cc3ncnc(Nc4ccc5c(ccn5Cc5cc(F)ccc5F)c4)c3s2)C1)N1CCOCC1 ) reads 3.88

Field inhibition (entry Cc1cc(O)cc(C)c1/C=C/c1cncc(C(N)=O)c1 ) reads 2.25
